- measurement target: human Gal3-His (Homo sapiens, UniProt P17931)
- Sequence (P17931 whole entry): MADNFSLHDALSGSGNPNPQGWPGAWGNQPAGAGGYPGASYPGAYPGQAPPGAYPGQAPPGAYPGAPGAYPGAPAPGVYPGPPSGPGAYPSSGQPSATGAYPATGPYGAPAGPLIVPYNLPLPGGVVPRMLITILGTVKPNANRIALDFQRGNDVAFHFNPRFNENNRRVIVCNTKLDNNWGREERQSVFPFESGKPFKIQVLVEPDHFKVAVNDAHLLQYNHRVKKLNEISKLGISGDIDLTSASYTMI
- measurement description: Antibody binning by biolayer interferometry (Gator)
- Assay type: binding
- test settings: antibody competition
measurement name: Bin
Please give only the number in your answer, with no unit.

Quick one: Bin of 19B5.2E6: murine anti-Gal3 antibody (antibody, V domains shown) VH: QIQLVQSGPELKKPGETVKISCKASGYTFTTYAMSWVKQAPGKGLKWMGWINTYSGVPTYADDLKGRFAFSLETSASTAYLQINNLKNEDTATYFCARGPYAMDYWGQGTSVTVSS VL: DIQMTQTTSSLSASLGDRVTISCSASQGINNYLNWYQQKPDGTVKLLIYYASSLHSGVPSRFSGSGSGTDYSLTISNLEPEDIATYYCQQYSQVPYTFGSGTKLEIK ? 4

Try the molecule 12G5.D7: murine anti-Gal3 antibody (antibody, V domains shown, VH of 12G5.D7; VL of 12G5.D7, murine anti-Gal3 antibody) VH: QVQLKQSGAELVRPGASVKLSCKASGYTFTDYYINWVKQRPGQGLEWIARIYPGTGNTDYNEKFKGRATLTAEKSSSTAYMQLSSLTSEDSAVYFCARFAYYYGSGGYFDYWGHGTTLTVSS VL: DILMTQSPSSMSVSLGDTVSITCHASQGINSNMGWLQQKPGKSFKGLIYHATNLEDGVPSRFSGSGSGADYSLTISSLESEDFADYYCVQYAQFPPTFGSGTKLEIK 10

Let us now turn to 846.2H3: murine anti-Gal3 antibody (antibody, V domains shown) VH: QIQLVQSGPELKKPGETVKISCKASGYTFTNYGMNWVKQAPGKGLKWMGWINTYTGEPSYADDFKGRFAFSLETSASTAYLQINNLKNEDMATYFCARWGGYDGDYYAMDYWGQGTSVTVSS VL: NIMMTQSPSSLAVSAGEKVTMSCKSSQSVLYSSNQKNYLAWYQQKPGQSPKLLIYWASTRESGVPDRFTGSGSGTDFTLTISSVQPEDLAVYYCHQYLSSLTFGAGTKLELK 3
